Assay: Selectivity index, ratio of CC50 for cytotoxicity against […] H9c2 cells to MIC for antifungal activity against Candida glabrata ATCC 2001
Format: toxicity, cell-based
Details: rat, read-out: Selectivity Index
measurement kind: selectivity ratio
Write the number on its own, no unit after it.

CCCc1ccc(OCC(Cn2ccnc2)OC(=O)c2ccc(Cl)cc2)c(OC)c1 (centres undefined)
0.9
CCCc1ccc(OCC(Cn2ccnc2)OCc2ccc(Cl)cc2)c(OC)c1 (centres undefined)
1.2
C=CCc1ccc(OCC(Cn2ccnc2)OC(=O)c2ccc(Cl)cc2)c(OC)c1 (centres undefined)
3.5

Memo: C=CCc1ccc(OCC(Cn2ccnc2)OCc2ccc(Cl)cc2)c(OC)c1 (centres undefined) , reported selectivity ratio: 0.9

* * *

Property: MIC; scope: individual compounds
System: Candida parapsilosis
Assay: Antifungal activity against Candida parapsilosis ATCC 22019 assessed as inhibition of fungal growth incubated for 24 to 48 hrs by CLSI protocol based broth microdilution method
Assay type: functional
Conditions: Lodderomyces parapsilosis, time 24-48 hrs
Numeric answer only, unit µM assumed.

C=CCc1ccc(OCC(Cn2ccnc2)OC(=O)c2ccc(Cl)cc2)c(OC)c1 (centres undefined)
73.2
CCCc1ccc(OCC(Cn2ccnc2)OCc2ccc(Cl)cc2)c(OC)c1 (centres undefined)
75.3

The reported MIC of the compound `OC(Cn1cncn1)(Cn1cncn1)c1ccc(F)cc1F` was 3.3

Entry under test: Clc1ccc(COC(Cn2ccnc2)c2ccc(Cl)cc2Cl)c(Cl)c1 (centres undefined) . Its MIC was 7.8

* * *

Parameter MIC: see the listing below.
Experiment: Antifungal activity against Cryptococcus gattii ATCC 24065 assessed as inhibition of fungal growth incubated for 24 to 48 hrs by CLSI protocol based broth microdilution method
Type: functional, Cryptococcus gattii VGI
Details: time 24-48 hrs
Number first, unit second.

C=CCc1ccc(OCC(Cn2ccnc2)OC(=O)c2ccc(Cl)cc2)c(OC)c1 (stereo unspecified)
73.2 µM
C=CCc1ccc(OCC(Cn2ccnc2)OCc2ccc(Cl)cc2)c(OC)c1 (stereo unspecified)
18.9 µM
CCCc1ccc(OCC(Cn2ccnc2)OCc2ccc(Cl)cc2)c(OC)c1 (stereo unspecified)
18.8 µM

# molecule OC(Cn1cncn1)(Cn1cncn1)c1ccc(F)cc1F [FLUCONAZOLE] ; its MIC = 13.1 µM

The reported MIC of the molecule Clc1ccc(COC(Cn2ccnc2)c2ccc(Cl)cc2Cl)c(Cl)c1 (stereo unspecified) [MICONAZOLE] was 9.4 µM

Lab note: CCCc1ccc(OCC(Cn2ccnc2)OC(=O)c2ccc(Cl)cc2)c(OC)c1 (stereo unspecified) gave MIC of 72.7 µM

* * *

Assay: Selectivity index, ratio of CC50 for cytotoxicity against […] H9c2 cells to MIC for antifungal activity against Candida krusei ATCC 20298
Assay type: toxicity, cell-based
Conditions: read-out: Selectivity Index
measurement kind: selectivity ratio

For record CCCc1ccc(OCC(Cn2ccnc2)OCc2ccc(Cl)cc2)c(OC)c1 (stereo unspecified) the listed selectivity ratio is 1.2

* * *

Experiment: Selectivity index, ratio of CC50 for cytotoxicity against […] H9c2 cells to MIC for antifungal activity against Candida auris COLO 01 A
Assay type: toxicity, cell-based
Settings: read-out: Selectivity Index
// values below are reported selectivity ratio
# print the numeric value only

CCCc1ccc(OCC(Cn2ccnc2)OC(=O)c2ccc(Cl)cc2)c(OC)c1 (configuration not stated)
0.9

// moving on: another record for selectivity ratio
So for CCCc1ccc(OCC(Cn2ccnc2)OCc2ccc(Cl)cc2)c(OC)c1 (configuration not stated) , the logged selectivity ratio turned out to be 0.6

* * *

Consider the following compounds and their measured MIC readings.
Tested on: Nakaseomyces glabratus
Test: Antifungal activity against Candida glabrata ATCC 2001 assessed as inhibition of fungal growth incubated for 24 to 48 hrs by CLSI protocol based broth microdilution method
Type: functional
Conditions: time 24-48 hrs
Field format: number, assumed µM, no unit text.

Use these answered entries as a reference point.
CCCc1ccc(OCC(Cn2ccnc2)OCc2ccc(Cl)cc2)c(OC)c1 (stereo unspecified)
37.6
OC(Cn1cncn1)(Cn1cncn1)c1ccc(F)cc1F
13.1
Clc1ccc(COC(Cn2ccnc2)c2ccc(Cl)cc2Cl)c(Cl)c1 (stereo unspecified)
1.2
C=CCc1ccc(OCC(Cn2ccnc2)OCc2ccc(Cl)cc2)c(OC)c1 (stereo unspecified)
36.8
CCCc1ccc(OCC(Cn2ccnc2)OC(=O)c2ccc(Cl)cc2)c(OC)c1 (stereo unspecified)
36.4

Attention now turns to another entry.
Lab note: compound C=CCc1ccc(OCC(Cn2ccnc2)OC(=O)c2ccc(Cl)cc2)c(OC)c1 (stereo unspecified) tested on Nakaseomyces glabratus; recorded MIC was 36.5

* * *

# Lookup of reported selectivity ratio keyed by entry
Test: Selectivity index, ratio of CC50 for cytotoxicity against […] H9c2 cells to MIC for antifungal activity against Candida albicans SC5314
Assay type: toxicity, cell-based
Conditions: read-out: Selectivity Index
# respond with the number and nothing more

CCCc1ccc(OCC(Cn2ccnc2)OCc2ccc(Cl)cc2)c(OC)c1 (configuration not stated)
2.3

// recorded selectivity ratio for C=CCc1ccc(OCC(Cn2ccnc2)OC(=O)c2ccc(Cl)cc2)c(OC)c1 (configuration not stated) : 28.2

* * *

A collection of compounds and their measured MIC
System: Candida albicans
Assay: Antifungal activity against Candida albicans SC5314 assessed as inhibition of fungal growth incubated for 24 to 48 hrs by CLSI protocol based broth microdilution method
Type: functional
Details: time 24-48 hrs
Just the number in µM, nothing appended.

Clc1ccc(COC(Cn2ccnc2)c2ccc(Cl)cc2Cl)c(Cl)c1 (centres undefined) [MICONAZOLE]
150

Field MIC (entry OC(Cn1cncn1)(Cn1cncn1)c1ccc(F)cc1F [FLUCONAZOLE] ) reads 1.6

// recorded MIC for CCCc1ccc(OCC(Cn2ccnc2)OCc2ccc(Cl)cc2)c(OC)c1 (centres undefined) : 18.8

Reported MIC of C=CCc1ccc(OCC(Cn2ccnc2)OC(=O)c2ccc(Cl)cc2)c(OC)c1 (centres undefined) : 4.6

* * *

Known selectivity ratio of a selection of molecules
Assay: Selectivity index, ratio of CC50 for cytotoxicity against […] H9c2 cells to MIC for antifungal activity against Candida parapsilosis ATCC 22019
Type: toxicity, cell-based
Details: read-out: Selectivity Index

CCCc1ccc(OCC(Cn2ccnc2)OCc2ccc(Cl)cc2)c(OC)c1 (configuration not stated)
0.6

The molecule listed as C=CCc1ccc(OCC(Cn2ccnc2)OC(=O)c2ccc(Cl)cc2)c(OC)c1 (configuration not stated) has a reported selectivity ratio of 1.8

* * *

System: [Candida] auris
Assay: Antifungal activity against Candida auris COLO 01 A assessed as inhibition of fungal growth incubated for 24 to 48 hrs by CLSI protocol based broth microdilution method
Type: functional
Conditions: Candidozyma auris, time 24-48 hrs
The reader will find reported MIC values listed item by item below.
All answers are understood in µM, so give the number only.

As a guide, the following entries are already answered.
CCCc1ccc(OCC(Cn2ccnc2)OC(=O)c2ccc(Cl)cc2)c(OC)c1 (centres undefined)
36.4
OC(Cn1cncn1)(Cn1cncn1)c1ccc(F)cc1F [FLUCONAZOLE]
209
CCCc1ccc(OCC(Cn2ccnc2)OCc2ccc(Cl)cc2)c(OC)c1 (centres undefined)
75.3

Now for another entry.
Item: Clc1ccc(COC(Cn2ccnc2)c2ccc(Cl)cc2Cl)c(Cl)c1 (centres undefined) [MICONAZOLE] | MIC: 74.9

* * *

In this section we review reported selectivity ratio values for a set of molecules.
Experiment: Selectivity index, ratio of CC50 for cytotoxicity against […] H9c2 cells to MIC for antifungal activity against Candida tropicalis ATCC 750
Type: toxicity, cell-based
Conditions: read-out: Selectivity Index
Response field accepts a number only; no unit should be typed.

C=CCc1ccc(OCC(Cn2ccnc2)OC(=O)c2ccc(Cl)cc2)c(OC)c1 (configuration not stated)
1.8

Noted for CCCc1ccc(OCC(Cn2ccnc2)OCc2ccc(Cl)cc2)c(OC)c1 (configuration not stated) : its selectivity ratio reads 0.6

* * *

Experiment: Cytotoxicity against H9c2 cells assessed as inhibition of cell proliferation incubated for 72 hrs by resazurin dye based microplate reader analysis
Type: toxicity
Details: rat
Listed molecules paired with reported log10 CC50 at 72 h
Heads up: the numbers are on a log10 scale; they represent CC50 at 72 h in µM.

C=CCc1ccc(OCC(O)Cn2cncn2)c(OC)c1 (configuration not stated)
2.73
CCCc1ccc(OCC(O)Cn2ccnc2)c(OC)c1 (configuration not stated)
2.66
CCCc1ccc(OCC(Cn2cncn2)OCc2ccc(Cl)cc2)c(OC)c1 (configuration not stated)
1.60
CCCc1ccc(OCC(Cn2ccnc2)OCc2ccc(Cl)cc2)c(OC)c1 (configuration not stated)
1.65
C=CCc1ccc(OCC(Cn2cncn2)OCc2ccc(Cl)cc2)c(OC)c1 (configuration not stated)
1.72
C=CCc1ccc(OCC(Cn2cncn2)OC(=O)c2ccc(Cl)cc2)c(OC)c1 (configuration not stated)
1.98

Per the records, this molecule ( CCCc1ccc(OCC(Cn2cncn2)OC(=O)c2ccc(Cl)cc2)c(OC)c1 (configuration not stated) ) has log10 CC50 at 72 h equal to 1.55

The reported value for C=CCc1ccc(OCC(Cn2ccnc2)OCc2ccc(Cl)cc2)c(OC)c1 (configuration not stated) in terms of log10 CC50 at 72 h is 1.53

Briefly, log10 CC50 at 72 h measured for C=CCc1ccc(OCC(O)Cn2ccnc2)c(OC)c1 (configuration not stated) : 2.81

Value of measured log10 CC50 at 72 h for the entry CCCc1ccc(OCC(O)Cn2cncn2)c(OC)c1 (configuration not stated) : 2.74

Looking up C=CCc1ccc(OCC(Cn2ccnc2)OC(=O)c2ccc(Cl)cc2)c(OC)c1 (configuration not stated) , I see its log10 CC50 at 72 h listed as 2.11

GET /value?item= CCCc1ccc(OCC(Cn2ccnc2)OC(=O)c2ccc(Cl)cc2)c(OC)c1 (configuration not stated) &field=log10 CC50 at 72 h returns 1.55
